# Test system: UACC-62
# experiment: NCI tumour cell line growth inhibition, 48 h
The source made the active and inactive calls. Rule as the data show it: active = GI50 up to about 1.1 µM and inactive = higher.
recorded_endpoint: GI50

Consider the reported GI50 for these compounds:
CCOC(=O)NNC1(SC)NC(=O)c2c(cc(Cl)oc2=O)O1 (centres undefined) | 5.97 µM (inactive)
O=[N+]([O-])c1ccccc1OCCOc1ccccc1[N+](=O)[O-] | > 100 µM (inactive)
O=C(C(=O)n1ccc2ccccc21)n1ccc2ccccc21 | 57.9 µM (inactive)
O=C(CCC(NC(=O)OCc1ccccc1)C(=O)OCc1ccccc1)Nc1ccc(OCc2ccccc2)cc1 (centres undefined) | > 31.6 µM (inactive)
COc1cc(S(=O)(=O)Nc2nc(-c3ccc(N4C(=O)/C(=C/c5ccccc5)N=C4c4ccccc4)cc3)cs2)ccc1Cl | 21.2 µM (inactive)
CCc1nn(S(=O)(=O)c2ccc(C)cc2)c2c1CS(=O)(=O)CC2 | > 100 µM (inactive)

Which GI50 value is on record for `CC(C)=CCC[C@@H](C)c1c2nc3ccccc3sc-2c(C)c(=O)c1O` ?
4.99 µM (inactive)

Quick one: GI50 of `O=c1[nH]nc(Cc2ccccc2)n1Nc1ccccc1` ?
> 100 µM (inactive)

I would be grateful if you could share the reported GI50 for `Cc1ccc(CSC(=N)Nc2ccccc2)cc1C` .
13.1 µM (inactive)

---

# System: OVCAR-4
# experiment: NCI tumour cell line growth inhibition, 48 h
The source made the active and inactive calls. Rule as the data show it: active = GI50 up to about 1.1 µM and inactive = higher.
Your answer must be one of the following: active, inactive

The following molecules have reported results that may help.
CCOC(=O)C1=C(C)N(c2ccc(Cl)cc2)C2(O)C=CC(O)=C3C(=O)c4ccccc4C(=O)C312 (centres undefined) | inactive
Nc1cccc(CCN2CCN(CCCc3ccccc3)CC2)c1 | inactive
NC(=O)c1cnc2sc3ccccc3n2c1=O | inactive
COc1ccc(OC)c2c1CC(C(=O)O)(C(=O)O)CC2=O | inactive
O=C1CC(n2cccc2)c2c(Br)sc(Br)c21 (centres undefined) | inactive

Any idea what this test logged for CC(CN(C)C)C(C#N)(c1ccccc1)c1ccccc1 (centres undefined) ?
inactive

Give the logged outcome of this assay for the following molecule: `S=C1SCN(Cc2ccco2)CN1c1ccc(Br)cc1`
inactive

Recorded test outcome, item `Cc1ccc(-c2nc(C)c(C(=O)Nc3ccc(Cl)cc3)s2)cc1`
inactive

Which outcome was entered for the molecule `Fc1cccc(F)c1C(Nc1nncs1)Nc1nncs1` in this test?
inactive

State the result this test recorded for `O=C(/C=C/c1ccccc1)c1cc(Br)ccc1O` .
inactive

For `Cc1cc(C)nc(NS(=O)(=O)c2ccc(NC(=O)c3ccc4nc5ccccc5c(Nc5ccc(S(=O)(=O)N=C(N)N)cc5)c4c3)cc2)n1` , what call appears in the results of this test?
inactive

Hi team, can someone confirm the assay call for `CN(C)c1cccc(-c2cc(O)c3cc4c(cc3n2)OCO4)c1` ?
active

What did the test return for `O=C(Nc1ccccc1-c1nc2ccccc2[nH]c1=O)c1ccccc1` ?
inactive

Answer briefly: the call reported for `O=C(NCc1ccccc1)c1cc2ccccc2o/c1=N\c1cccc(C(F)(F)F)c1` in this assay.
inactive

---

Below is a list of entries, each paired with its recorded GI50 value.
# Tested on: NCI-H460
# experiment: NCI tumour cell line growth inhibition, 48 h
Calls of active or inactive are those of the source. No stated cut-off is given here; in the data, active = GI50 up to about 1.1 µM and inactive = higher.

Please review the entries below; each comes with its answer.
COC(=O)c1nc(N)nc(O)c1CCCCCc1c(O)nc(N)nc1C(=O)OC | > 50 µM (inactive)
S=c1[nH]c(=S)c2cc(Sc3ccc4[nH]c(=S)[nH]c(=S)c4c3)ccc2[nH]1 | 45.5 µM (inactive)
Fc1cccc(F)c1C(Nc1nncs1)Nc1nncs1 | > 100 µM (inactive)
NC1=NN(c2ccccc2)C(=O)C1C(=O)C(=O)Nc1ccc(Cl)c(Cl)c1 (stereo unspecified) | > 100 µM (inactive)

Which GI50 is reported for this molecule? `[N-]=[N+]=NC1=C(c2ccccn2)C(=O)c2cccc3cccc1c23`
12 µM (inactive)

Query (molecule): `O=C(/C=C/C1C(=O)NC(=O)NC1=O)CC(=O)C(=O)Nc1cc(Cl)c(Cl)cc1Cl` ; field requested: GI50
> 100 µM (inactive)

Tell me the measured GI50 of `CN(C)c1ccc(/C=N\N2C(=O)c3ccccc3C2=O)cc1` , please.
> 100 µM (inactive)

Request the reported GI50 associated with COc1cc(C2c3cc4c(cc3[C@@H](Nc3ccc(C(=O)O)cc3)C3COC(=O)[C@H]23)OCO4)cc(OC)c1O (stereo partly specified)
2.39 µM (inactive)

Dear colleague, I am looking for the recorded GI50 of the following molecule: `N#C/C(N)=C(C#N)/N=C/N`
> 100 µM (inactive)

What value of GI50 has been reported for the following molecule? CN(C)CCOc1ccc2[nH]c(C(=O)N3CC(CCl)c4c3cc([N+](=O)[O-])c3ccccc43)cc2c1 (stereo unspecified)
1.77 µM (inactive)

Returns the measured GI50 for the input molecule. Input: CCOC(=O)/C=C(/C=C\COC1CCCCO1)c1ccccc1 (stereo unspecified)
48.1 µM (inactive)

Give its GI50 value. Item: `C/C(CC(=O)Nc1cc(Cl)c(Cl)cc1Cl)=N\NS(=O)(=O)c1ccc(C)cc1`
38.8 µM (inactive)

Can you share its GI50? I mean this molecule: Cc1cc(=O)oc2cc(O)ccc12 [HYMECROMONE]
> 100 µM (inactive)

// GI50 lookup, key: `CCc1ccccc1NNc1cc(=O)[nH]c(=O)[nH]1`
22.9 µM (inactive)

Which GI50 value is on record for `Cc1cn2c(/C=N/NC(=N)N)c(-c3ccc([N+](=O)[O-])cc3)nc2s1` ?
1.76 µM (inactive)

What value of measured GI50 is listed for CN1C(=O)CN2C(Cl)(Cl)C2(c2ccccc2F)c2cc([N+](=O)[O-])ccc21 (stereo unspecified) ?
33.2 µM (inactive)

Consider the molecule shown here: CC1OC(OCC2OC(Oc3c(-c4ccc(O)cc4)oc4cc(O)cc(O)c4c3=O)C(OC3OC(C)C(O)C(O)C3O)C(O)C2O)C(O)C(O)C1O (stereo unspecified) What is its recorded GI50?
> 68.9 µM (inactive)

Need GI50, item `COC(=O)C1=C(C(=O)OC)C2OC1c1cc3ccccc3cc12`
22.2 µM (inactive)

Query: GI50; subject: `C[Si](C)(C)CNC(=O)OCc1ccccc1`
> 100 µM (inactive)

Which value of GI50 has been reported for CC1(C)OP(=O)(c2ccccc2)C=C1Br (stereo unspecified) in the records?
> 100 µM (inactive)

I'd like to know its GI50. The molecule in question is `O=C(C(=O)n1ccc2ccccc21)n1ccc2ccccc21`
36.6 µM (inactive)

Endpoint output: GI50 of C=C1CCC2[C@@H](CCC3[C@]2(C)CCC[C@]3(C)C(=O)OC)[C@@H]1CC=O (stereo partly specified) . Value?
20 µM (inactive)

Returns the measured GI50 for the input molecule. Input: O=C1c2ccccc2C(=O)c2c(O)ccc(O)c21 [QUINIZARIN]
40.8 µM (inactive)

Name the recorded GI50 for `COC(OC)c1cccnc1C` .
> 100 µM (inactive)

# query: GI50 of entry `CNC(=O)N(CCC#N)CCCN(C(=O)NC)c1ccccc1`
> 100 µM (inactive)
